Data provenance is paper doi:10.1101/2020.08.07.241463v2.

target: OpuAC (free / soluble substrate-binding domain) (Lactococcus lactis, UniProt Q7DAU8, N367C/N423C)
Sequence (Q7DAU8 320-573 N367C/N423C): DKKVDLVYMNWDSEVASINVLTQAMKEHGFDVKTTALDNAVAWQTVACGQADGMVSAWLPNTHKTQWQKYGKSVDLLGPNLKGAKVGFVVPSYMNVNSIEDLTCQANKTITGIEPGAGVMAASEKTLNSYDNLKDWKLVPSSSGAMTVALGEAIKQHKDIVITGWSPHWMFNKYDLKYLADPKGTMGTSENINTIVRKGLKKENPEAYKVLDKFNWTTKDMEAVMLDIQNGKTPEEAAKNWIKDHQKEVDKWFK
procedure-summary: smFRET
pKd: −log10 of the molar value.
experimental-endpoint: pKd

* C[N+](C)(C)CC(=O)[O-] [GB, glycine betaine] | ~5.22
